Consider the following compounds and their measured growth readings.
Tested on: MDA-MB-468 breast
Assay: NCI-60 one-dose screen, 48 h (100 = growth as untreated, 0 = no growth, -100 = all killed)
Details: 10 µM unless noted
This is part of a sample that, as a whole, favours compounds with a hit. Of some 83,000 tested, about 20% had one in any assay.

{"columns": ["structure", "unit.of.measure", "growth"],
 "data": [
  ["CCc1ccc(NC(=O)N[C@@H](Cc2cc(F)cc(F)c2)C(=O)N[C@@H]2C(=O)N3CCC[C@H]3C(=O)N3CCO[C@H](C)[C@H]3C(=O)N[C@@H](CO)C(=O)N3C[C@H](C)C[C@H]3C(=O)O[C@H]2C)c(F)c1", "%", -7.66],
  ["c1ccc(-c2n(Cc3ccc4ccccc4n3)cc[n+]2Cc2ccc3ccccc3n2)cc1", "%", -12.3],
  ["COc1ccc(-c2ccc(-c3ccc(C(=N)N)cc3)s2)cc1Cl", "%", -65],
  ["N/C(=N\\C(N)=N\\c1nc2ccccc2s1)c1ccc(C(F)(F)F)cc1", "%", 107],
  ["Cc1ccccc1Cn1cnc2ccc(-c3cc(NC(=O)c4ccc(NC5CCN(C)CC5)cc4)n[nH]3)cc21", "%", 94.5],
  ["COc1ccc(-c2nnc(SCC(=O)Nc3ccc(C(=O)/C=C/c4ccc(Cl)cc4)cc3)n2-c2ccccc2)cc1", "%", 97.9],
  ["C=C1C(=O)O[C@H]2[C@H]1CC/C(COC(=O)/C=C\\C(=O)NCc1ccc(Cn3c(=O)sn(-c4ccc(Cl)cc4)c3=O)cc1)=C\\CC[C@@]1(C)O[C@@H]21", "%", -83.5]
]}

* * *

Test system: MDA-MB-468 breast
Test: NCI-60 one-dose screen, 48 h
Conditions: 10 µM unless noted
Compounds without any hit were thinned out: in the full panel of roughly 83,000, 20% have a hit. Active and inactive are the calls of the source. The calls were made as follows: active = growth percent below 10; inactive = the rest.
Classes used: True = active, False = inactive

{"columns": ["compound", "label"],
 "data": [
  ["COc1ccc(-c2nc(SCCC(C)C)nc(Nc3ccc(F)c(Cl)c3)c2C#N)cc1", "False"],
  ["C=C1CCC2C(C)(CO)C(O)CCC2(C)C1CC(NCc1ccccc1)C1=CCOC1=O (stereo not drawn)", "False"],
  ["CCOC(=O)c1cc(C(=O)c2ccc(O)c(O)c2)n2ccc(-c3ccn4c(C(=O)c5ccc(O)c(O)c5)cc(C(=O)OCC)c4c3)cc12", "False"],
  ["CSc1ccc2c(c1)N(CCC1CCCCN1C)c1ccccc1S2 (stereo not drawn)", "True"],
  ["Nc1nc2c(nnn2C2CC(O)C(CO)O2)c(=O)[nH]1 (stereo not drawn)", "False"],
  ["CC(C)Cc1cc(CNC(=O)C2[C@H]3CN(C(=O)c4ccccc4)C[C@@H]23)nn1-c1ccccc1 (stereo partly drawn)", "False"],
  ["C=CCn1c(SCC(=O)Nc2ccc(C(=O)/C=C/c3cc(OC)c(OC)c(OC)c3)cc2)nnc1-c1cc(-c2ccc(Cl)cc2)nc2ccccc12", "False"],
  ["O=C1CCC23OC(C(O)c4ccccc4N12)C1C(Br)=NOC13 (stereo not drawn)", "False"],
  ["CCOC(=O)Cc1cnc(N/N=C(\\C)c2cc3ccccc3o2)s1", "False"],
  ["CC1(C)c2[nH]c3ccccc3c2C[C@]2(C)[C@H]3CC=C4[C@@H]5C[C@@](C)(C(N)=O)CC[C@]5(C)CC[C@@]4(C)[C@]3(C)CC[C@@H]12", "False"],
  ["Cc1ccccc1/C=C/c1nn2c(-c3ccoc3C)nnc2s1", "False"],
  ["NC(N)=N/N=C/c1cccc(Br)c1", "False"],
  ["O=C1Nc2ccccc2C12C=C(c1ccccc1)Nc1c2c(-c2ccccc2)nn1-c1ccccc1 (stereo not drawn)", "False"],
  ["CC(=O)Oc1ccccc1C(=O)/C=C/c1cccc([N+](=O)[O-])c1", "False"],
  ["C=CCO[C@H]1CO[C@H]2[C@@H]1OC[C@@H]2Oc1ccc(Nc2ccnc(Nc3ccc(O[C@H]4CO[C@H]5[C@@H]4OC[C@@H]5OCC=C)c(Cl)c3)n2)cc1Cl", "True"],
  ["COc1cccc(NC(=O)c2sc3nc(C)c(C(O)c4ccccc4)cc3c2N)c1 (stereo not drawn)", "False"],
  ["COc1ccc(/C=C(\\C#N)n2nnc3cc(F)c(F)cc32)cc1", "True"],
  ["COc1cc(-c2nc3ccc(C)cc3[nH]2)ccc1OCC(=O)N=Nc1c(O)[nH]c2ccc(Cl)cc12", "True"],
  ["C[C@@H]1CC[C@@H]2[C@@H]1[C@H](OC(=O)/C=C/c1ccccc1)[C@]1(c3ccccc3)C[C@@H](OC(=O)CO)[C@@]2(C)O1", "False"],
  ["COc1cc(OC)c(/C=C/S(=O)(=O)Cc2ccc(OC)c(NC(=O)CCC(=O)NO)c2)c(OC)c1", "False"],
  ["COc1ccc(CN2C(=O)/C(=C\\C(=O)c3ccc(OCCN4CCCC4)cc3)c3ccccc32)cc1", "False"],
  ["O=S(=O)(/N=c1/n(-c2ccccc2)nc2n1CCN2C1=NCCN1)c1ccc(-c2ccccc2)cc1", "False"],
  ["CC1=C2C(=C[C@@](C)(COS(N)(=O)=O)[C@@H]2O)C(=O)[C@](C)(O)C12CC2", "True"],
  ["Clc1ccc(-c2nnc(COc3ccccc3Cl)o2)cc1", "False"],
  ["O=C1c2cccc3c(-c4ccc(-c5nc6c7ccccc7c7ccccc7c6[nH]5)cc4)ccc(c23)C(=O)N1CCN1CCNCC1", "False"],
  ["Cn1cc(-c2ccc3ncc(-c4ccc(CC(=O)Nc5cc(C(C)(C)C)nn5C)cc4)cc3c2)cn1", "True"],
  ["Nc1nc2c(c3ncccc13)C(c1cccc(Cl)c1)Cc1ncccc1-2 (stereo not drawn)", "False"],
  ["CN(C)CCCOc1ccc(OCCCN(C)C)c2c1C(=O)c1ccccc1C2=O", "True"],
  ["NC(=S)NN=C1CCCCC1", "False"],
  ["Cc1ccc2nc(NC(=O)CSc3nc(-c4ccccc4)c(C#N)c(=O)n3Cc3ccccc3)sc2c1", "False"],
  ["O=C(/C=C/c1cccc(O)c1)c1ccccc1O", "False"],
  ["NC(N)=NCCCCCNc1noc(Cc2c[nH]c3cc(Br)ccc23)n1", "True"],
  ["COc1ccc(C(=O)/C=C/c2cc(-c3ccc(OC)c(OC)c3)n[nH]2)cc1OC", "True"],
  ["COC1CCN(Cc2ccc3c(NNC(=O)c4cnccn4)nc4cc(F)ccc4n23)C1 (stereo not drawn)", "True"],
  ["O=C1C=CC(=O)N1c1ccc(O)cc1", "False"],
  ["CN(C)CCCNc1nn2c(=O)c3ccccc3nc2c2ccccc12", "False"],
  ["C[C@H](CCCC(=O)NCC#CCN1CCN(C)CC1)[C@H]1CC[C@H]2[C@@H]3CC[C@@H]4CC(=O)CC[C@]4(C)[C@H]3CC[C@]12C", "False"],
  ["COc1cc(OC)c2cc(C(=O)c3ccc(C#N)cc3)c(=O)oc2c1", "False"]
]}

* * *

Test system: MDA-MB-468 breast
Assay: NCI-60 one-dose screen, 48 h
Settings: 10 µM unless noted
This is part of a sample that, as a whole, favours compounds with a hit. Of some 83,000 tested, about 20% had one in any assay. Activity calls are given as the source filed them. How the source made its calls: active means growth percent below 10; inactive means the rest.
Classes used: active, inactive

{"columns": ["structure", "label"],
 "data": [
  ["Nc1ncc(-c2ccc3ncnc(Nc4cccc(Cl)c4)c3c2)cn1", "active"],
  ["C=C(C)[C@@H]1CC[C@]2(CN)CC[C@]3(C)[C@H](CC[C@@H]4[C@@](C)(CCCN)[C@H](C(=C)C)CC[C@]43C)[C@@H]12", "inactive"],
  ["CCCCOC(=O)c1ccc(NC(=O)CCl)cc1", "inactive"],
  ["Nc1c(C(=O)Nc2ccccc2)sc2nc3c(cc12)CCCCCC3", "active"],
  ["Cc1[nH]c2ccccc2c1C1=CC(=O)C=CC1=O", "inactive"],
  ["COc1ccc2c(c1)c(CC(=O)NCCOCCOCC(=O)Nc1ccc(OC)c(C(N)=O)c1O)c(C)n2C(=O)c1ccc(Cl)cc1", "inactive"]
]}

* * *

System: OVCAR-5 ovarian
Test: NCI-60 one-dose screen, 48 h (100 = growth as untreated, 0 = no growth, -100 = all killed)
Conditions: 10 µM
Compounds without any hit were thinned out: in the full panel of roughly 83,000, 20% have a hit.

{"columns": ["compound", "unit.of.measure", "growth"],
 "data": [
  ["Cc1ccc(S(=O)(=O)N2CCN(S(=O)(=O)c3oc(-c4ccccc4)nc3C#N)CC2)cc1", "%", 91.1],
  ["O=C(Nc1ccc(OCC(=O)c2ccc(Cl)cc2)cc1)Nc1ccc(Cl)c(C(F)(F)F)c1", "%", 61.2],
  ["O=C(c1ccc(Cl)cc1)C(c1c[nH]c2ccccc12)c1c[nH]c2ccccc12", "%", -60.7],
  ["COc1cccc(O)c1/C=C1\\SCc2cc3c(OC)cccc3[o+]c21", "%", 105],
  ["CCOc1ccc(/C=N/NC(=O)Cn2nc(Cc3ccc(OC)cc3)c3onc(C)c3c2=O)cc1", "%", 44.9],
  ["COc1ccc(Cn2cc(C#N)c(N)c2C(C)=O)c(OC)c1", "%", 112],
  ["Cn1cc(-c2nnc(N)nc2-c2c[nH]c3ccccc23)c2cc(Br)cnc21", "%", 94.3],
  ["Cc1ccc(COc2ccc(NC(=O)Nc3ccc(Cl)c(C(F)(F)F)c3)cc2)cc1", "%", 85],
  ["COc1ccccc1-n1cc(C#N)c(N)c1C(=O)c1ccc(Cl)cc1Cl", "%", 49.9],
  ["Cc1cc(N=C2NC(=O)/C(=C/c3cc(C(C)(C)C)c(O)c(C(C)(C)C)c3)S2)n[nH]1", "%", 36.6],
  ["COc1ccc(NCc2cn(-c3ccc(C(=O)O)cc3)nc2-c2ccc(F)cc2)cc1C(F)(F)F", "%", 72.4],
  ["O=C(CSc1nc2ccccc2c(=O)n1-c1ccc(Cl)cc1)Nc1ccc(-c2nc3ccc([N+](=O)[O-])cc3[nH]2)cc1", "%", 92.6],
  ["Cn1cc(-c2cc3nc(-c4c[nH]c5ccccc45)cc(N)n3n2)c2cc(Cl)ccc21", "%", -86.4],
  ["CCOC(=O)c1ccc(NC(=O)CSC(CC(=O)c2sc(Nc3ccccn3)nc2C)c2ccccc2F)cc1 (stereo not drawn)", "%", -6.86],
  ["COC(=O)CNC(=O)COc1c(OC)c(OC)cc2oc(-c3cccc(C(=O)Nc4ccc(Cl)cc4)c3)cc(=O)c12", "%", 90.7],
  ["Cc1ccc(-c2nc(C#N)c(S(=O)(=O)N3CCN(S(C)(=O)=O)CC3)o2)cc1", "%", 76.9],
  ["COc1ccc(Cc2nn(CC(=O)N/N=C/c3ccc(Br)cc3)c(=O)c3c(C)noc23)cc1", "%", 59],
  ["Cc1ccc2c(c1)C(=O)/C(=C/c1ccc([N+](=O)[O-])cc1)S2", "%", 82.9],
  ["O=C1S/C(=C\\c2ccc([N+](=O)[O-])cc2)C(=O)N1CCN1CCCCC1", "%", 114],
  ["CCOC(=O)C1=C(N)N(c2ccc(C)cc2)C2=C(C(=O)CC(C)(C)C2)C1c1ccccc1Br (stereo not drawn)", "%", 97.5],
  ["COc1ccc(OC)c(-n2cc(C#N)c(N)c2C(=O)c2ccc(Cl)cc2Cl)c1", "%", 74.4],
  ["COc1ccc2[nH]cc(-c3nc(N)nnc3-c3cn(C)c4ncc(Br)cc34)c2c1", "%", 20.6],
  ["O=C(CN1CCN(c2ncnc3c2cnn3-c2ccccc2)CC1)Nc1ccc(Cl)cc1", "%", 85.6],
  ["O=C(c1ccccc1)c1ccc2nc(-c3ccccc3Br)[nH]c2c1", "%", -65.8],
  ["COc1cc(C2CC(c3ccc(Oc4ccc(Cl)cc4)cc3)=NN2c2nc(-c3ccc(Cl)cc3)c(C#N)c(N3CCOCC3)n2)cc(OC)c1OC (stereo not drawn)", "%", 101],
  ["CC1[C@H]2[C@H](C[C@H]3[C@@H]4CC=C5c6sc(Nc7cccc(Cl)n7)nc6CC[C@]5(C)[C@H]4CC[C@@]32C)O[C@]12CC[C@@H](C)CO2 (stereo partly drawn)", "%", 113],
  ["Nc1nnc(-c2c[nH]c3ncc(Br)cc23)c(-c2c[nH]c3ccc(Br)cc23)n1", "%", 62.1],
  ["Fc1ccc(/C=C/c2nc3ccccc3n3c(-c4ccc(Cl)cc4)nnc23)cc1", "%", 96.3]
]}
